Values from ChEMBL document CHEMBL5120880

- System: Staphylococcus aureus
- protocol-description: Antibacterial activity against Staphylococcus aureus MRSA assessed as minimal inhibitory concentration incubated for 24 hrs
- Format: functional
observable: MIC (µg/mL)
Kindly provide the numeric value in µg/mL only, without the unit symbol.

// query Look up MIC for this compound: `CCCCCCCCCCNC(=O)[C@@H](N)Cc1ccccc1`
// result 20

// query What about this compound? `CCCCCCCCCCCCNC(=O)[C@@H](N)CC(C)C`
// result 6.25

// query Do the same for CCCCCCCCCCCCNC(=O)[C@@H](N)C(C)CC (some centres not stated) please
// result 4

// query Moving on to `C#Cc1cccc(NC(=O)[C@@H](N)CC(C)C)c1`
// result 31.2

// query Follow-up item: `CCCCCCNC(=O)[C@@H](N)Cc1ccccc1`
// result 312

// query Repeat with `CCCCCCCCCCCCNC(=O)[C@@H](N)C(C)C`
// result 8.3

// query Let us now turn to `CCCCNC(=O)[C@@H](N)Cc1ccccc1`
// result 624
